species: Rattus norvegicus; assay: DrugMatrix - Regimen: Daily Repeat; type: toxicity, organism-based, Sprague-Dawley; parameters: regimen Daily Repeat, gender Male, age 6-8 weeks; conditions: in vivo, po, 0 mg/kg, 120 h, tissue Plasma, route oral GAVAGE, dose level Control, time 5 day, vehicle 100 % WATER
readout-name: ALANINE AMINOTRANSFERASE (u/L)
Please reply with the bare figure in u/L and do not write the unit itself.

The value of ALANINE AMINOTRANSFERASE measured for the compound CNS(=O)(=O)Cc1ccc2[nH]cc(CCN(C)C)c2c1 turned out to be 50.17

ALANINE AMINOTRANSFERASE measured on CCOC(N)=O = 50.67

// sample CCCc1nn(C)c2c(=O)[nH]c(-c3cc(S(=O)(=O)N4CCN(C)CC4)ccc3OCC)nc12 , its ALANINE AMINOTRANSFERASE was 50.5

OCCO yielded ALANINE AMINOTRANSFERASE of 50.5

###

organism: Rattus norvegicus; test: DrugMatrix - Regimen: Daily Repeat; type: toxicity, organism-based, Sprague-Dawley; design: regimen Daily Repeat, gender Male, age 6-8 weeks; conditions: in vivo, po, 0 mg/kg, 72 h, tissue Blood, route oral GAVAGE, dose level Control, time 3 day, vehicle .5 % CMC
readout-name: ABSOLUTE MONOCYTE
Your answer should be a number followed by the unit of measure.

Lab note: CCOC(=O)[C@H](CCc1ccccc1)N[C@@H](C)C(=O)N1Cc2ccccc2C[C@H]1C(=O)O gave ABSOLUTE MONOCYTE of 183.17 CELLS/uL

Entry C[C@@H]1CC[C@H]2[C@@H](C)C(=O)O[C@@H]3O[C@@]4(C)CC[C@@H]1[C@]32OO4 ; ABSOLUTE MONOCYTE = 180.83 CELLS/uL

For reference, reported ABSOLUTE MONOCYTE for COc1ccccc1OCC(O)COC(N)=O (stereo not given) stands at 180.83 CELLS/uL

Notebook: CN1C(=O)CN=C(c2ccccc2)c2cc(Cl)ccc21 , ABSOLUTE MONOCYTE read as 160.33 CELLS/uL

For this molecule ( CC(=O)O[C@]1(C(C)=O)CC[C@H]2[C@@H]3C=C(Cl)C4=CC(=O)[C@@H]5C[C@@H]5[C@]4(C)[C@H]3CC[C@@]21C [CYPROTERONE ACETATE] ), measured ABSOLUTE MONOCYTE is 183.17 CELLS/uL

###

organism: Rattus norvegicus; assay: DrugMatrix - Regimen: Daily Repeat; type: toxicity, organism-based, Sprague-Dawley; set-up: regimen Daily Repeat, gender Male, age 6-8 weeks; details: in vivo, po, 0 mg/kg, 120 h, tissue Plasma, route oral GAVAGE, dose level Control, time 5 day, vehicle 100 % WATER
readout-name: LACTATE DEHYDROGENASE (u/L)
Answer format: numeric, u/L implied, no suffix.

Summary for this molecule, CC[C@H]1OC(=O)[C@H](C)[C@@H](O[C@H]2C[C@@](C)(OC)[C@@H](O)[C@H](C)O2)[C@H](C)[C@@H](O[C@@H]2O[C@H](C)C[C@H](N(C)C)[C@H]2O)[C@](C)(O)C[C@@H](C)CN(C)[C@H](C)[C@@H](O)[C@]1(C)O : LACTATE DEHYDROGENASE is 180

Lab note: CC[C@H]1OC(=O)[C@H](C)[C@@H](O[C@H]2C[C@@](C)(OC)[C@@H](O)[C@H](C)O2)[C@H](C)[C@@H](O[C@@H]2O[C@H](C)C[C@H](N(C)C)[C@H]2O)[C@](C)(OC)C[C@@H](C)C(=O)[C@H](C)[C@@H](O)[C@]1(C)O gave LACTATE DEHYDROGENASE of 127

For record CCCc1nn(C)c2c(=O)[nH]c(-c3cc(S(=O)(=O)N4CCN(C)CC4)ccc3OCC)nc12 the listed LACTATE DEHYDROGENASE is 157

Record O=P1(N(CCCl)CCCl)NCCCO1 (stereo not given) [CYCLOPHOSPHAMIDE ANHYDROUS] , field LACTATE DEHYDROGENASE: 146.17

Looking up OCCO , I see its LACTATE DEHYDROGENASE listed as 157

For record Nc1ccc(S(=O)(=O)Nc2nccs2)cc1 the listed LACTATE DEHYDROGENASE is 141.33

Entry under test: CC(C)(C)NC[C@H](O)COc1nsnc1N1CCOCC1 . Its LACTATE DEHYDROGENASE was 141.33

Value of LACTATE DEHYDROGENASE reported for the molecule CCOC(N)=O is 389.5

The reported value for CCN(CC)CC#CCOC(=O)C(O)(c1ccccc1)C1CCCCC1 (stereo not given) in terms of LACTATE DEHYDROGENASE is 238.83

Consider CCCCCCCCCCCCCCCC[n+]1ccccc1.[Br-] . Its measured LACTATE DEHYDROGENASE is 212.67

###

organism: Rattus norvegicus; test: DrugMatrix - Regimen: Daily Repeat; assay type: toxicity, organism-based, Sprague-Dawley; set-up: regimen Daily Repeat, gender Male, age 6-8 weeks; settings: in vivo, po, 0 mg/kg, 120 h, tissue Blood, route oral GAVAGE, dose level Control, time 5 day, vehicle .5 % CMC
readout-name: LYMPHOCYTE (%)
Hi! Could you send only the number? It should be in %, unit omitted.

// field: LYMPHOCYTE; key: Nc1cccc(Cl)c1 ; value = 85.9

Entry CCCCC1C(=O)N(c2ccccc2)N(c2ccccc2)C1=O — recorded LYMPHOCYTE = 88

Record CC(=O)O[C@]1(C(C)=O)CC[C@H]2[C@@H]3C=C(Cl)C4=CC(=O)[C@@H]5C[C@@H]5[C@]4(C)[C@H]3CC[C@@]21C [CYPROTERONE ACETATE] . Reported LYMPHOCYTE: 88.33

Item: C[C@@H](O)[C@H]1C(=O)N2C(C(=O)O)=C(S[C@@H]3CN[C@H](C(=O)N(C)C)C3)[C@H](C)[C@H]12 | LYMPHOCYTE: 90.5

Measured LYMPHOCYTE, CO[C@H]1C[C@@H]2CC[C@@H](C)[C@@](O)(O2)C(=O)C(=O)N2CCCC[C@H]2C(=O)O[C@H]([C@H](C)C[C@@H]2CC[C@@H](O)[C@H](OC)C2)CC(=O)[C@H](C)/C=C(\C)[C@@H](O)[C@@H](OC)C(=O)[C@H](C)C[C@H](C)/C=C/C=C/C=C/1C : 90.5

Sure, the documented LYMPHOCYTE for CC(C(=O)O)c1ccc(-c2ccccc2)c(F)c1 (stereo not given) is 90.5

Reported LYMPHOCYTE of C=C(CC)C(=O)c1ccc(OCC(=O)O)c(Cl)c1Cl : 87.17

Note to self: LYMPHOCYTE recorded for CC(C)(Sc1cc(C(C)(C)C)c(O)c(C(C)(C)C)c1)Sc1cc(C(C)(C)C)c(O)c(C(C)(C)C)c1 was 90.5

Value of LYMPHOCYTE reported for the molecule COc1ccccc1OCC(O)COC(N)=O (stereo not given) is 90.83

Data point: COc1ccc(/C=C/C(=O)Nc2ccccc2C(=O)O)cc1OC ; LYMPHOCYTE = 90.5

// Cc1cnc(C(=O)NCCc2ccc(S(=O)(=O)NC(=O)NC3CCCCC3)cc2)cn1 [GLIPIZIDE] : LYMPHOCYTE value = 88.33

LYMPHOCYTE measured on C[C@@H]1CC[C@H]2[C@@H](C)C(=O)O[C@@H]3O[C@@]4(C)CC[C@@H]1[C@]32OO4 = 90.83

Value of LYMPHOCYTE reported for the molecule C[C@]12C/C(=C/O)C(=O)C[C@@H]1CC[C@@H]1[C@@H]2CC[C@@]2(C)[C@H]1CC[C@]2(C)O is 82.57

// CN1C(=O)CN=C(c2ccccc2)c2cc(Cl)ccc21 : LYMPHOCYTE value = 93

For reference, reported LYMPHOCYTE for CC[C@]1(O)CC[C@H]2[C@@H]3CCC4=CCCC[C@@H]4[C@H]3CC[C@@]21C stands at 79.92

###

Provide the recorded PLATELET COUNT for the entries that follow.
species: Rattus norvegicus; experiment: DrugMatrix - Regimen: Daily Repeat; format: toxicity, organism-based, Sprague-Dawley; design: regimen Daily Repeat, gender Male, age 6-8 weeks; details: in vivo, po, 0 mg/kg, 72 h, tissue Blood, route oral GAVAGE, dose level Control, time 3 day, […]
Numbers only here, please. The scale is x10E3/uL.

The recorded PLATELET COUNT for CCn1cc(C(=O)O)c(=O)c2cc(F)c(N3CCNCC3)nc21 is 1274.5

PLATELET COUNT for CN(CCOc1ccc(CC2SC(=O)NC2=O)cc1)c1ccccn1 (configuration not stated) is 1084

For reference, reported PLATELET COUNT for CC[C@H](C)C(=O)O[C@H]1C[C@H](O)C=C2C=C[C@H](C)[C@H](CC[C@@H](O)C[C@@H](O)CC(=O)O)[C@H]21 stands at 1084

Note to self: PLATELET COUNT recorded for C#C[C@]1(O)CC[C@H]2[C@@H]3CCc4cc(O)ccc4[C@H]3CC[C@@]21C was 1274.5

PLATELET COUNT in this record for CC(CCc1ccc(O)cc1)NCCc1ccc(O)c(O)c1 (configuration not stated) : 1303.33

Looking up CC[C@H](C)C(=O)O[C@H]1C[C@@H](C)C=C2C=C[C@H](C)[C@H](CC[C@@H]3C[C@@H](O)CC(=O)O3)[C@H]21 , I found its PLATELET COUNT recorded as 896

Value of measured PLATELET COUNT for the entry NC[C@@H]1O[C@H](O[C@H]2[C@@H](O)[C@H](O[C@@H]3[C@@H](O)[C@H](N)C[C@H](N)[C@H]3O[C@H]3O[C@H](CN)[C@@H](O)[C@H](O)[C@H]3N)O[C@@H]2CO)[C@H](N)[C@@H](O)[C@@H]1O : 1211.33
